Test: Aqueous solubility of compound at pH 7.4
Format: physicochemical
Conditions: buffer
# Lookup of reported solubility keyed by entry

Known solubility results, listed for orientation:
The reported value for CC(C)OC(=O)[C@H](C)N[P@](=O)(OC[C@H]1O[C@@H](n2ccc(=O)[nH]c2=O)[C@](C)(F)[C@@H]1O)Oc1ccccc1 [SOFOSBUVIR] in terms of solubility is > 200 µM

The reported value for COc1cccc(O[P@](=O)(N[C@@H](C)C(=O)OC(C)C)OC[C@H]2O[C@@H](n3ccc(=O)[nH]c3=O)[C@](Cl)(Br)[C@@H]2O)c1 in terms of solubility is 20 µM

The reported value for COCC(C)OC(=O)[C@H](C)NP(=O)(OC[C@H]1O[C@@H](n2ccc(=O)[nH]c2=O)[C@](Cl)(Br)[C@@H]1O)Oc1ccccc1 (stereo partly specified) in terms of solubility is > 200 µM

Continuing:
The reported value for CC(C)OC(=O)[C@H](C)N[P@@](=O)(OC[C@H]1O[C@@H](n2ccc(=O)[nH]c2=O)[C@](Cl)(Br)[C@@H]1O)Oc1ccccc1 in terms of solubility is > 200 µM

The reported value for CC(C)OC(=O)[C@H](C)N[P@](=O)(OC[C@H]1O[C@@H](n2ccc(=O)[nH]c2=O)[C@](Cl)(Br)[C@@H]1O)Oc1ccccc1 in terms of solubility is 23 µM

The reported value for CCOC(=O)C(C)(C)NP(=O)(OC[C@H]1O[C@@H](n2ccc(=O)[nH]c2=O)[C@](Cl)(Br)[C@@H]1O)Oc1ccccc1 (stereo partly specified) in terms of solubility is > 200 µM
